For each of the compounds below, state its EC50.
Test system: Influenza A virus
TEST NAME: Antiviral activity against Influenza A virus A/PR/8/34 (H1N1) infected in MDCK cells assessed as inhibition of virus-induced cytopathic effect
Assay type: functional, organism-based
CONDITION DETAILS: A/Puerto Rico/8/1934(H1N1)
Answers are plain numbers, in µM.

Examples from the recorded data:
C=C1CC23CC=CCC2(CNC3)C1 (configuration not stated)	45
CC1CC23CNCC2(C1)CC(C)C3 (configuration not stated)	24

Record EC50 for all entries; do not skip any.
1. C1CC[C@]23CCCC[C@@]2(C1)CNC3
2. C1=CC[C@]23CCCC[C@@]2(C1)CNC3

5.9
30
